# credit: patent US20120046308A1

Tested on: human PPARγ2 (Homo sapiens)
Construct: the amino acids 182 to 505 of human PPARγ2; expressed in transfected cells; host or cells: COS7 cells (African green monkey kidney)
Experiment notes: PPARγ activation activity, Gal4-PPARγ2 LBD luciferase transfection assay using COS7 cells
Type: cell-based
Test settings: COS-7, 16 h; maximum activity strength relative to the maximum activity of rosiglitazone; read-out: % MAX vs Rosiglitazone
Measured attribute: Emax (%)

Here are 2 compounds together with their reported answers.
{"Compound": "CCCc1cc(Cc2c(CCC)nc(C)n(-c3ccccn3)c2=O)cc(CCC)c1OC(C(=O)O)c1ccccc1 (stereo not shown)", "Tested on": "human PPARγ2 (Homo sapiens)", "Measured attribute": "Emax", "Test value": 25.2}
{"Compound": "CCCCc1nc(C)n(-c2ncc(OC)cn2)c(=O)c1Cc1cc(CCC)c(OC(C(=O)O)c2ccc(Cl)cc2)c(CCC)c1 (stereo not shown)", "Tested on": "human PPARγ2 (Homo sapiens)", "Measured attribute": "Emax", "Test value": 49.1}

I. CCCCc1nc(C)n(-c2ccccn2)c(=O)c1Cc1cc(CCC)c(OC(C(=O)O)c2ccccc2Cl)c(CCC)c1 (stereo not shown)
II. CCCCc1nc(C)n(-c2ccc(OCC)cc2)c(=O)c1Cc1cc(CCC)c(OC(C(=O)O)c2ccccc2)c(CCC)c1 (stereo not shown)
III. CCCCc1nc(C)n(-c2ccc(OC(C)C)cc2)c(=O)c1Cc1cc(CCC)c(OC(C(=O)O)c2ccccc2)c(CCC)c1 (stereo not shown)
Data request: Falling order of Emax, please. Put the labels in the requested order and write them down.
Data returned: III, II, I
(III: 63%, II: 42.9%, I: 23.3%)

P. CCCCc1nc(C)n(-c2ncc(OCc3ccccc3)cn2)c(=O)c1Cc1cc(CCC)c(OC(C(=O)O)c2ccccc2)c(CCC)c1 (stereo not shown)
Q. CCCCc1nc(C)n(-c2ccccn2)c(=O)c1Cc1cc(CCC)c(OC(C(=O)O)c2ccccc2OC)c(CCC)c1 (stereo not shown)
Data request: Compare P and Q by numeric Emax and name the larger one. Indicate your choice by writing its label.
Data returned: P

1. CCCCc1nc(C)n(CC2CCCCC2)c(=O)c1Cc1cc(CCC)c(OC(C(=O)O)c2ccccc2)c(CCC)c1 (stereo not shown)
2. CCCCc1nc(C)n(-c2ccc(OCc3ccccc3)cc2)c(=O)c1Cc1cc(CCC)c(OC(C(=O)O)c2ccccc2)c(CCC)c1 (stereo not shown)
Data request: Between these two entries, 1 and 2 , state which has the higher Emax. Respond using the label that marks the chosen record.
Data returned: 2
(2: 57.5%, 1: 28.5%)

* * *

Tested on: human PPARγ2 (Homo sapiens, UniProt P37231)
Construct: the amino acids 182 to 505 of human PPARγ2; expressed in transfected cells; host or cells: COS7 cells (African green monkey kidney)
Sequence (P37231 182-505): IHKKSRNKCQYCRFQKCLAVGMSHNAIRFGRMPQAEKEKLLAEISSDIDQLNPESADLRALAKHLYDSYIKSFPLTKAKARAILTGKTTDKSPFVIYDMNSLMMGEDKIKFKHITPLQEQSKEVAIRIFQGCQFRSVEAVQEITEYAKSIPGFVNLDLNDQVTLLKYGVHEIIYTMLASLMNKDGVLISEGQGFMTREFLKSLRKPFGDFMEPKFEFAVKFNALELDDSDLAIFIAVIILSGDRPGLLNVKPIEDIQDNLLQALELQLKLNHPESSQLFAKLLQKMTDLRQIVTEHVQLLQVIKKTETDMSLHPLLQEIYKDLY
Experiment notes: PPARγ activation activity, Gal4-PPARγ2 LBD luciferase transfection assay using COS7 cells
Format: cell-based
Test settings: EC50, COS7 cells, 16 hours, luciferase activity relative to rosiglitazone = 100%
Method: The agonistic activity of the compounds of the invention on PPARγ was measured based on the transfection assay using COS7 cells (DS Pharma Biomedical Co., Ltd., Osaka, Japan), which are the cell line derived from the kidney of the African green monkey. COS7 cells were cultured under 5% CO2 concentration, and DMEM medium containing 10% fetal bovine serum, glutamic acid, and antibiotics was used as a medium. […]
pEC50: −log10 of the molar value.
Measured attribute: pEC50

Data request: // fetch pEC50 given entry CCCc1nc2c(C)cc(-c3nc4ccccc4n3C)cc2n1Cc1ccc(-c2ccccc2C(=O)O)cc1 [telmisartan, reference compound]
Data returned: 5.30 to 6.00
